TEST_DESCRIPTION: FX activation assay, CHO cell surface
CONDITION_SET: glycan lost; control: wild-type TF-GFP
MEASUREMENT_LABEL: enzymatic_activity

tissue factor (TF): TFN11A/N124A/N137A (protein) parent chain: METPAWPRVPRPETAVARTLLLGWVFAQVAGASGTTNTVAAYNLTWKSTNFKTILEWEPKPVNQVYTVQISTKSGDWKSKCFYTTDTECDLTDEIVKDVKQTYLARVFSYPAGNVESTGSAGEPLYENSPEFTPYLETNLGQPTIQSFEQVGTKVNVTVEDERTLVRRNNTFLSLRDVFGKDLIYTLYYWKSSSSGKKTAKTNTNEFLIDVDKGENYCFSVQAVIPSRTVNRKSTDSPVECMGQEKGEFREIFYIIGAVVFVVIILVIILAISLHKCRKAGVGQSWKENSPLNVS    no change
tissue factor (TF): TFN11A (protein) parent chain: METPAWPRVPRPETAVARTLLLGWVFAQVAGASGTTNTVAAYNLTWKSTNFKTILEWEPKPVNQVYTVQISTKSGDWKSKCFYTTDTECDLTDEIVKDVKQTYLARVFSYPAGNVESTGSAGEPLYENSPEFTPYLETNLGQPTIQSFEQVGTKVNVTVEDERTLVRRNNTFLSLRDVFGKDLIYTLYYWKSSSSGKKTAKTNTNEFLIDVDKGENYCFSVQAVIPSRTVNRKSTDSPVECMGQEKGEFREIFYIIGAVVFVVIILVIILAISLHKCRKAGVGQSWKENSPLNVS    no change
tissue factor (TF): TFN11A/N124A (protein) parent chain: METPAWPRVPRPETAVARTLLLGWVFAQVAGASGTTNTVAAYNLTWKSTNFKTILEWEPKPVNQVYTVQISTKSGDWKSKCFYTTDTECDLTDEIVKDVKQTYLARVFSYPAGNVESTGSAGEPLYENSPEFTPYLETNLGQPTIQSFEQVGTKVNVTVEDERTLVRRNNTFLSLRDVFGKDLIYTLYYWKSSSSGKKTAKTNTNEFLIDVDKGENYCFSVQAVIPSRTVNRKSTDSPVECMGQEKGEFREIFYIIGAVVFVVIILVIILAISLHKCRKAGVGQSWKENSPLNVS    no change
